system: MKL-1; test: qHTS assay to identify novel small-molecules to repurpose for Merkel cell carcinoma treatment (AID 1296009); details: MCC and control cell lines, CellTiter-Glo viability, 72 h; series mostly up to 46 µM; further: nearly all actives have a fitted effect of over 60% in size; further: potency means the concentration at half of the fitted maximal effect
Results filed as inconclusive are left out. Active and inactive are the calls of the source. The call rests on the fitted dose curve; in most records, active means well fitted inhibition curve with a large enough effect; inconclusive means small, poorly fitted or top-dose-only effect; inactive means flat fitted curve, though single readings scatter.
Value Type: Potency

Examples from the recorded data:
{"columns": ["Molecule", "Reported"],
 "data": [
  ["O=C(OCC(O)CO)c1ccccc1Nc1ccnc2cc(Cl)ccc12 (stereo not drawn)", "inactive"],
  ["Cc1nc2n(c(=O)c1CCN1CCC(c3noc4cc(F)ccc34)CC1)CCC[C@H]2O", "inactive"],
  ["CCCCCCC[N+](CC)(CC)CCCCc1ccc(Cl)cc1", "0.596 µM (active)"],
  ["CC(=O)N(O)CCCCCNC(=O)CCC(=O)N(O)CCCCCNC(=O)CCC(=O)N(O)CCCCCN", "3.35 µM (active)"],
  ["NC(CO)(CO)CO", "inactive"]
]}

What value of Potency has been recorded for this entry: `CCCC(=O)O[C@]1(C(=O)CO)CC[C@H]2[C@@H]3CCC4=CC(=O)CC[C@]4(C)[C@H]3[C@@H](O)C[C@@]21C`
inactive

What do you have for `C[C@]12CC[C@H]3[C@@H](CCC4=CC(=O)CC[C@@]43C)[C@@H]1CC[C@@H]2C(=O)CO` ?
inactive

What do you have for CCCCN1CCCC1C(=O)Nc1c(C)cc(C)cc1C (stereo not drawn) ?
inactive

What do you have for `CCCCCCCCCCCCCCCC[N+](C)(C)CCN(Cc1ccc(OC)cc1)c1ncccn1` ?
5.96 µM (active)

What do you have for `CC(C)N=C(N)/N=C(\N)Nc1ccc(Cl)cc1` ?
inactive

What do you have for CCCCC(CC)CN=C(N)NC(N)=NCCCCCCN=C(N)NC(N)=NCC(CC)CCCC (stereo not drawn) ?
1.33 µM (active)

What do you have for `CC1(C)O[C@@H]2C[C@H]3[C@@H]4C[C@H](F)C5=CC(=O)C=C[C@]5(C)[C@H]4[C@@H](O)C[C@]3(C)[C@]2(C(=O)CO)O1` ?
inactive

What do you have for `CN(C/C=C/c1ccccc1)Cc1cccc2ccccc12` ?
inactive

Measured values drawn from PubChem BioAssay (NCATS) for this set.
